- measurement.target: T1, RESTV GP on rVSV particles (Reston virus (RESTV), UniProt Q66799 34-677)
- T1 sequence: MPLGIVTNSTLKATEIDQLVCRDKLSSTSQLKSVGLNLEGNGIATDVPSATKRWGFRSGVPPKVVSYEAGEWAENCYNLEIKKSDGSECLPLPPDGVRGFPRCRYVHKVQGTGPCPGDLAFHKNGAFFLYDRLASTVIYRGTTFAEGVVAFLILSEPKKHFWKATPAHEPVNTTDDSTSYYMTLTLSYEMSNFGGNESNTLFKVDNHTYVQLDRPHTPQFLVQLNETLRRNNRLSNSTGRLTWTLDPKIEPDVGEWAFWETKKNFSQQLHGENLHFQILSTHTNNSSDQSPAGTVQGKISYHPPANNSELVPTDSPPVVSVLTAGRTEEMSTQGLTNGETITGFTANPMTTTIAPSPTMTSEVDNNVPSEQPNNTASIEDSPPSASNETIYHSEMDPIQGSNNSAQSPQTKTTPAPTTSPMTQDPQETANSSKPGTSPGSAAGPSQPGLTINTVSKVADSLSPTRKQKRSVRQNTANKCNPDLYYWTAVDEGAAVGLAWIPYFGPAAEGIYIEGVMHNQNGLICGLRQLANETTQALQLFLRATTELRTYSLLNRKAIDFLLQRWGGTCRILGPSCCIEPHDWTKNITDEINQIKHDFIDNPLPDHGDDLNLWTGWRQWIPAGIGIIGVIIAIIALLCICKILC
- measurement.description: cell-based or functional assay
Would you mind telling me the reported IC50 (nM), neutralization of rVSV-GP of each entry?
Please state the figure in nM; there is no need to write the unit.

Data request: So what's the measured IC50 (nM), neutralization of rVSV-GP for this one? PE-87 V102A (antibody, V domains shown) VH: QVQLVQSGVTLVQPGGSLRVSCAASGFTFSSYAMSWVRQAPGKGLEWVSAISGLGGSTYYADSVKGRFTISRDNSKNTLYLQMNSLRAEDTAVYYCAKDHRAWAAGYHFDYWGQGALVTVSS VL: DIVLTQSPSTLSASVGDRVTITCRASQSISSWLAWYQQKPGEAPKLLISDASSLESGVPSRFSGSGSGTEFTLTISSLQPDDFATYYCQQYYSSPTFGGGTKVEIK
Data returned: 0.2

Data request: So what's the measured IC50 (nM), neutralization of rVSV-GP for this one? PE-87 H108A (antibody, V domains shown) VH: QVQLVQSGVTLVQPGGSLRVSCAASGFTFSSYAMSWVRQAPGKGLEWVSAISGLGGSTYYADSVKGRFTISRDNSKNTLYLQMNSLRAEDTAVYYCAKDHRVWAAGYAFDYWGQGALVTVSS VL: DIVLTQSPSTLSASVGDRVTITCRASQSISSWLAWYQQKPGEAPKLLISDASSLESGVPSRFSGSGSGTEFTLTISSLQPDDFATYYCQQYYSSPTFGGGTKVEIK
Data returned: 0.5

Data request: So what's the measured IC50 (nM), neutralization of rVSV-GP for this one? PE-87 G106A (antibody, V domains shown) VH: QVQLVQSGVTLVQPGGSLRVSCAASGFTFSSYAMSWVRQAPGKGLEWVSAISGLGGSTYYADSVKGRFTISRDNSKNTLYLQMNSLRAEDTAVYYCAKDHRVWAAAYHFDYWGQGALVTVSS VL: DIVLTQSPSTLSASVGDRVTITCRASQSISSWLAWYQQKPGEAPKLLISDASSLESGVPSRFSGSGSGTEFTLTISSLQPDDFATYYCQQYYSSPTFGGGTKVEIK
Data returned: 0.2
